MIC values by entry
tested on: Fusarium oxysporum; experiment: Antifungal activity against Fusarium oxysporum VKM F-140 after 48 hrs by broth microdilution method; assay type: functional
# number only, unit µg/mL dropped from output

Please review the following examples before continuing.
C[C@@H]1[C@H](O)[C@@H](C)/C=C/C=C/C=C/C=C/C=C/C=C/C=C/[C@H](O[C@H]2O[C@@H](C)[C@H](O)[C@@H](N)[C@H]2O)C[C@@H]2O[C@](O)(C[C@@H](O)[C@H](O)CC[C@@H](O)C[C@@H](O)C[C@@H](O)CC(=O)O[C@H]1C)C[C@H](O)[C@H]2C(=O)NC(C)(CO)CO : 16
CCOC(=O)CNC(=O)[C@H]1[C@@H]2C[C@@H](O[C@H]3O[C@@H](C)[C@H](O)[C@@H](N)[C@H]3O)/C=C/C=C/C=C/C=C/C=C/C=C/C=C/[C@H](C)[C@@H](O)[C@@H](C)[C@H](C)OC(=O)C[C@H](O)C[C@H](O)C[C@H](O)CC[C@@H](O)[C@H](O)C[C@](O)(C[C@@H]1O)O2 : 4

Next molecule, MIC to be filled in.
Inquiry: Return MIC for the following molecule: `CNC(=O)[C@H]1[C@@H]2C[C@@H](O[C@H]3O[C@@H](C)[C@H](O)[C@@H](N)[C@H]3O)/C=C/C=C/C=C/C=C/C=C/C=C/C=C/[C@H](C)[C@@H](O)[C@@H](C)[C@H](C)OC(=O)C[C@H](O)C[C@H](O)C[C@H](O)CC[C@@H](O)[C@H](O)C[C@](O)(C[C@@H]1O)O2`
Reply text: 8
